experiment: chemical genetic growth profiling, strain panel (AID 1159580);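 note: tested at 20 µM; growth read once vehicle control cultures reached saturation at 30 °C; 1 = growth at the plate median or of vehicle wells; lower values mean less growth of the strain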; conditions: S. cerevisiae deletion strains, growth OD, locus YMR223W, strain ubp8, hits give low values
Among all 5,500 compounds or so, about 2,000 (36%) were called active. About 18% were inconclusive and are not listed. Some of the results follow.
endpoint name: normalized growth
Form rule: numeric answer, no unit written next to it.

Some entries whose results are on file:
[
  {
    "molecule": "C[C@@H]1CC[C@H]2[C@@H](C)C(=O)O[C@@H]3O[C@@]4(C)CC[C@@H]1[C@]32OO4",
    "normalized growth": 0.878
  },
  {
    "molecule": "Nc1ccc(S(=O)(=O)Nc2ccnn2-c2ccccc2)cc1",
    "normalized growth": 0.991
  },
  {
    "molecule": "COc1cccc(OC)c1OCCNCC1COc2ccccc2O1 (centres undefined)",
    "normalized growth": 0.963
  }
]

Inquiry: Looking for the measured normalized growth of CC(C)=CCCC1(C)C=Cc2c(O)c3c(c(CC=C(C)C)c2O1)OC12C(=CC4CC1C(C)(C)OC2(C/C=C(\C)C(N)=O)C4=O)C3=O (centres undefined) , can you help?
Reply text: 0.95

Inquiry: Looking for the measured normalized growth of O=C(COc1ccc(Cl)cc1)N1CCN(Cc2ccc3c(c2)OCO3)CC1 , can you help?
Reply text: 0.898

Inquiry: Looking for the measured normalized growth of C=C/C(C)=C\CC1C(C)(O)CCC2C(C)(C)CCCC21C (centres undefined) , can you help?
Reply text: 0.0709

Inquiry: Looking for the measured normalized growth of N=C(N)c1ccc(OCCCCCOc2ccc(C(=N)N)cc2)cc1 , can you help?
Reply text: 0.868

Inquiry: Looking for the measured normalized growth of Cc1cc(O)ccc1Cl , can you help?
Reply text: 1.01

Inquiry: Looking for the measured normalized growth of C[C@H]1[C@H](C)CC[C@]2(CO)CC[C@]3(C)C(=CCC4[C@@]5(C)CC[C@H](O)C(C)(C)C5CC[C@]43C)[C@H]12 (some centres undefined) , can you help?
Reply text: 1.02

Inquiry: Looking for the measured normalized growth of N[C@H](C(=O)O)[C@@H]1CC(Cl)=NO1 , can you help?
Reply text: 0.22

Inquiry: Looking for the measured normalized growth of COc1cc(C(=O)O[C@H]2CC[C@@]3(C)[C@@H]4CC[C@H]5[C@]6(O)C[C@H](O)[C@@]7(O)[C@@H](CN8C[C@@H](C)CC[C@H]8[C@@]7(C)O)[C@]6(O)C[C@@]53O[C@]24O)cc(OC)c1OC , can you help?
Reply text: 0.964

----------
test: chemical genetic growth profiling, strain panel (AID 1159580);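 note: tested at 20 µM; growth read once vehicle control cultures reached saturation at 30 °C; 1 = growth at the plate median or of vehicle wells; lower values mean less growth of the strain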; conditions: S. cerevisiae deletion strains, growth OD, locus YEL003W, strain gim4
Screen size: about 5,500 compounds; about 2,000 (36%) were called active. About 18% were inconclusive and are not listed. Rule as the data show it: active = normalized growth mostly below about 0.91 (no sharp cut-off); inconclusive = no clear call, values can overlap the other calls; inactive = mostly above about 0.92. This is one part of the list.
API: response.call in active, inactive

Some entries whose results are on file:
[
  {
    "molecule": "NCCC(=O)N[C@@H](Cc1cnc[nH]1)C(=O)O",
    "qualitative label": "inactive"
  },
  {
    "molecule": "COC1=C[C@@H]2[C@@H]3Cc4ccc(OC)c(O)c4[C@]2(CCN3C)CC1=O",
    "qualitative label": "inactive"
  },
  {
    "molecule": "COc1ccc2c3c([nH]c2c1)C(C)=NCC3",
    "qualitative label": "inactive"
  },
  {
    "molecule": "NNc1nncc2ccccc12",
    "qualitative label": "inactive"
  },
  {
    "molecule": "Nc1c2ccccc2nc2ccccc12 (tested in a mixture with another compound)",
    "qualitative label": "active"
  },
  {
    "molecule": "CCOC(=O)OC(C)OC(=O)C1N2C(=O)C(NC(=O)[C@H](N)c3ccccc3)C2SC1(C)C (some centres not stated)",
    "qualitative label": "inactive"
  }
]

Let's switch to this molecule now.
Inquiry: Which result was noted for this molecule in the test: Nc1c2c(nc3ccccc13)CCCC2
Reply text: inactive

----------
assay: chemical genetic growth profiling, strain panel (AID 1159580);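 note: tested at 20 µM; growth read once vehicle control cultures reached saturation at 30 °C; 1 = growth at the plate median or of vehicle wells; lower values mean less growth of the strain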; conditions: S. cerevisiae deletion strains, growth OD, locus YNR049C, strain mso1, hits give low values
The campaign covered roughly 5,500 compounds. About 2,000 (36%) were called active. About 18% were inconclusive and are not listed. Some of the results follow.
endpoint name: normalized growth
Form rule: numeric answer, no unit written next to it.

[
  {
    "compound": "CC1=NS(=O)(=O)c2cc(Cl)ccc2N1",
    "value reported": 0.974
  },
  {
    "compound": "Nc1ccc(S(=O)(=O)c2ccc(N)cc2)cc1",
    "value reported": 1
  },
  {
    "compound": "Cc1cc(-n2c(=O)[nH]c(=O)n(C)c2=O)ccc1Oc1ccc(SC(F)(F)F)cc1",
    "value reported": 0.98
  },
  {
    "compound": "Cc1ccc(S(=O)(=O)NC(=O)NN2CC3CCCC3C2)cc1 (stereo not given)",
    "value reported": 0.961
  },
  {
    "compound": "CC1(C)CC[C@]2(C)CC[C@]3(C)C(=CCC4[C@@]5(C)CC[C@H](O)C(C)(C)C5CC[C@]43C)C2C1 (stereo not given in full)",
    "value reported": 0.987
  }
]

Inquiry: Looking for the measured normalized growth of C[C@]12CCC(=O)C=C1CCC1C2[C@@H](O)C[C@@]2(C)C1CC[C@]2(O)C(=O)CO (stereo not given in full) , can you help?
Reply text: 0.999

Inquiry: Looking for the measured normalized growth of CCCCCCCCCCCCCCC(C(=O)O)C(O)(CC(=O)OC)C(=O)O (stereo not given) , can you help?
Reply text: 0.999

Inquiry: Looking for the measured normalized growth of Nc1c2ccccc2nc2ccccc12 , can you help?
Reply text: 0.672

Inquiry: Looking for the measured normalized growth of O=C1C(O)=C(O)C(=O)C(O)=C1O , can you help?
Reply text: 1.01

Inquiry: Looking for the measured normalized growth of Cc1cc(C(C)(C)C)c(O)c(C(C)(C)C)c1 , can you help?
Reply text: 0.982

Inquiry: Looking for the measured normalized growth of Nc1ccc(S(=O)(=O)Nc2ccnn2-c2ccccc2)cc1 , can you help?
Reply text: 0.996

Inquiry: Looking for the measured normalized growth of NCCC(=O)N[C@@H](Cc1cnc[nH]1)C(=O)O , can you help?
Reply text: 1.01

Inquiry: Looking for the measured normalized growth of COC(=O)C[C@H]1C(C)(C)C2(O)OC34CC2C(=O)[C@]1(C)C3CC[C@]1(C)C4=CC(=O)O[C@H]1c1ccoc1 (stereo not given in full) , can you help?
Reply text: 0.988

Inquiry: Looking for the measured normalized growth of C#C[C@]1(O)CCC2C3CCC4=C(CCC(=O)C4)C3CC[C@@]21C (stereo not given in full) , can you help?
Reply text: 0.982

Inquiry: Looking for the measured normalized growth of CC(C)=CCCC1(C)C=Cc2c(O)c3c(c(CC=C(C)C)c2O1)OC12C(=CC4CC1C(C)(C)OC2(C/C=C(/C)C(=O)O)C4=O)C3=O (stereo not given) , can you help?
Reply text: 0.978

Inquiry: Looking for the measured normalized growth of Cc1cn([C@H]2C[C@H](N=[N+]=[N-])[C@@H](CO)O2)c(=O)[nH]c1=O , can you help?
Reply text: 0.996

Inquiry: Looking for the measured normalized growth of O=C(O)CC(O)(CC(=O)O)C(=O)O , can you help?
Reply text: 1

Inquiry: Looking for the measured normalized growth of COC(=O)C[C@H]1C(C)(C)C(=O)[C@@H]2CC3C4=CC(=O)O[C@@H](c5ccoc5)[C@]4(C)CCC3[C@@]1(C)C2=O (stereo not given in full) , can you help?
Reply text: 0.976

Inquiry: Looking for the measured normalized growth of CC(C)(Sc1cc(C(C)(C)C)c(O)c(C(C)(C)C)c1)Sc1cc(C(C)(C)C)c(O)c(C(C)(C)C)c1 , can you help?
Reply text: 1

Inquiry: Looking for the measured normalized growth of C[C@@H]1C(=O)O[C@H]2[C@H]1CC[C@@]1(C)C=CC(=O)[C@@]3(C)O[C@@]213 , can you help?
Reply text: 1.04

Inquiry: Looking for the measured normalized growth of CCC(C)C(NC)C(=O)O (stereo not given) , can you help?
Reply text: 1.02

Inquiry: Looking for the measured normalized growth of O=C1c2c(O)cccc2Cc2cccc(O)c21 , can you help?
Reply text: 1.01

Inquiry: Looking for the measured normalized growth of CC(C)CCCC1(C)C=Cc2c(O)c3c(c(CCC(C)C)c2O1)OC12C(CC4CC1C(C)(C)OC2(CCC(C)C(=O)O)C4O)C3=O (stereo not given) , can you help?
Reply text: 1.01

Inquiry: Looking for the measured normalized growth of Clc1ccccc1C(c1ccccc1)(c1ccccc1)n1ccnc1 , can you help?
Reply text: 0.0594

----------
assay: chemical genetic growth profiling, strain panel (AID 1159580);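 note: tested at 20 µM; growth read once vehicle control cultures reached saturation at 30 °C; 1 = growth at the plate median or of vehicle wells; lower values mean less growth of the strain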; conditions: S. cerevisiae deletion strains, growth OD, locus YER133W, strain GLC7, hits give low values
Out of some 5,500 compounds screened, about 2,000 (36%) were called active. Not shown: some 18% with an inconclusive outcome. The list shows a part of the results.
Measured normalized growth of individual entries
Form rule: numeric answer, no unit written next to it.

[
  {
    "molecule": "O=C(NCCc1ccncc1)c1ccc(Cl)c(Cl)c1",
    "value reported": 0.969
  },
  {
    "molecule": "Cc1nc(-c2cccnc2)nc(NCc2ccccc2)c1Cl",
    "value reported": 0.853
  },
  {
    "molecule": "Clc1ccc2c(c1)c1ccccc1n2CN1CCOCC1",
    "value reported": 0.641
  }
]

Inquiry: Looking for the measured normalized growth of O=S(=O)(NC(=S)Nc1ccc(Cl)c(Cl)c1)c1ccccc1 , can you help?
Reply text: 1.01

Inquiry: Looking for the measured normalized growth of O=C(c1ccc(Cl)cc1)N(Cc1ccccc1)Cc1cccnc1 , can you help?
Reply text: 0.868

Inquiry: Looking for the measured normalized growth of O=C(NCC(c1ccccc1)c1c[nH]c2ccccc12)c1ccc(C(F)(F)F)cc1 (stereo unspecified) , can you help?
Reply text: 0.979
